Cited source for all entries: the supplement of paper PMC12764529

assay: folding stability dG unfold from chymotrypsin proteolysis; higher = more stable
// folding stability dG unfold lookup, one value per entry

{"columns": ["ordered_residues", "folding stability dG unfold / kcal/mol"],
 "data": [
  ["SAGGSAGGSAGGMYYAIITNKNGKKKIIKFKSLEEMEEAAKKNNIKIEIIPKEELEKLLSAGGSAGGSAGGS [r10_66_TrROS_Hall]", 3.64],
  ["SAGGITIRGMPWEWAEEIAKTLAQEGYRLKDVEVEEDPPDGYYSVTVQQRDPETGKPKKPVTISIPPSAGGS [r16_750_TrROS]", 0.0769],
  ["SAGGSAGGSGITPAAKKIAAEIEKKYPNEKIKVEEELLPNGYLKIKVTTDNGKKYEIIIKVGGSAGGSAGGS [r20_210_TrMRF]", 3.51],
  ["SAGGIRIDDEGMIQIYFPGWRHTIPIKPNLEITEITIPDDGYIKITFRIPGKTVKHEFPMLPPGQEISAGGS [r16_635_TrROS]", 1.32],
  ["SAGGSAMKKIKIEVEKKGDEYIVRIKIKNPDGKIEEIEIKLKDEEEAKKLAEELLKEGKIDEIELESAGGSA [r15_575_TrROS_Hall]", 2.29],
  ["SAGGDWVPIEFTIMVPAEELQEGKPPTAEDIVEELFPPNFNVDIDVQQFPGNGYVYATVKIWVPPGMPSAGG [r13_862_TrROS]", 2.46],
  ["SMEEEEEEPEPAPVVVITVEPGETVEQVRAAAREAAEKGMRIVITGLSEEEAKAIAEELGLDVEIEVVEPSA [r9_1207_TrROS_Hall]", 1.47],
  ["SAGGMKTAVLTLEVPGLPKRLVLIAGESEEEYKKLAAEAEKPGYEFLGYTTLEELVERTGLPASLLLSAGGS [r16_438_JUSTAS]", 1.07],
  ["SAGVKIERDPNPGWMEITYPIDNKPIQIEIPMDPNNGQMKVKVEYGDGKPKEYTIPGGSIEEIIEDLFSAGG [r19_159_TrROS]", 0.111],
  ["SIITINFHPGMFHISIYKDGGEKTIPMPWSEIKELLKKGVDKVEIHSPDPGFMNEFQKLVQKEGIPIEIHSA [r9_810_TrROS]", 2.12],
  ["SAGGSAGGSAGGMITVEVEVPGDEAEAEARREAIAEELAAEGHEDVPITVTFVSPEEAASAGGSAGGSAGGS [r10_1099_JUSTAS]", 0.388],
  ["SAGGSAGGSMVEITFPPDLSEEEAEALAKELEEKYNKKVKITKVPPEIPVPLPQYDPTNWVEVSAGGSAGGS [r12_159_JUSTAS]", -0.0306],
  ["SAMKLSPELLKKLGLSKEDIKEIEIEVEPVPELSEEDLKKKNVTVYKVKIKIKVNGKEYEVELLFVEPKSAG [r14_483_TrROS_Hall]", 2.49],
  ["SAGGSAGGEVEIEVTEEEEVPGLPDQEIVTKAKLPDGKTVTIKRTVDPKTGKVSVSFSVIEPPLSAGGSAGG [r6_337_JUSTAS]", 0.355],
  ["SAGGSAGGSAGKFKIKVFTHPDGYALALIEVPLGDKPVLILTLIKFPEDGNAEAETFIFPSAGGSAGGSAGG [r11_555_TrMRF]", 3.25],
  ["SAGGSAGGSAMTPEELLKAAEELAKKLNLKVEIEVKKNENGELTITVKVYKNGKLVKEFEIKSAGGSAGGSA [r18_369_TrROS_Hall]", 4.9],
  ["SAGGSAGGSAGGMVTVETAPAPEGTERVIRVTFLEVNPEDGTIVRPATLTFVVPPGDPLSAGGSAGGSAGGS [r10_86_TrMRF]", 0.876],
  ["SAGGSAGGSAGGTIEELVKAGKTVKVRVRLKNGETLEVEIRPDEVVEFPNIEEIEVEEVSAGGSAGGSAGGS [r10_700_TrROS_Hall]", 1.86],
  ["SAGGSAGGSAGPPVTLDEIRDHLPPENIEDVEVNPPEGWVVIEFKPPGGEKQEITIRADDSAGGSAGGSAGG [r17_374_TrROS]", 0.271],
  ["SAGGSAGGSDVEVEEVDVEIEVNGKKFKVKIYRNKKDKNRYYIFFEDTGKVFEIDKNGNIRPLSAGGSAGGS [r12_580_TrROS_Hall]", 3.49],
  ["SAGGSAGGSALKPNETATIRILTTAPDGKPYVLVVEVRVLPDGGVEVLGYKLVTLSDLEKNSAGGSAGGSAG [r3_212_TrMRF]", 3.74],
  ["SAGGSAGGSIKIPPGQMIHIRYEHGGKKREYSFTIDPNDGKIDEIIPPDNLPGYKIEEIHIVPSAGGSAGGS [r12_6_TrROS]", 0.729],
  ["SGSTHTVRPPGGLTLTFTFSTDGTTEEAAQALKEALAAALPPDVTVTFDRIDPDKPVTPDEAATVDATVVSA [r9_178_JUSTAS]", 1.69],
  ["SAGGSAGGSSYLVEVISRKKVKVGGKERYVVPVRIPDNGELVELVVSEDVAKNIKPGDVVVLSSAGGSAGGS [r12_382_TrMRF]", -0.00598],
  ["SAMKIEIEVPSLEQVKKLEKLLPDKYKISEVKVDPETKKVYVIIELDPSLSPEEVAKLEKEFEEVVKEESAG [r14_306_TrMRF]", 5.03],
  ["SAGGGPDLVIDVEILEIRVEPEPGKTATIRVRALIYNPETDTWTLAEFEIRIPDDGSVEVRFRVEPLRSAGG [r13_917_TrMRF]", 4.13],
  ["SAMKTIEIEIELDELKNLTPEELEEKAKELAEELAKKLAEEKGLEVVSVKVEVVEKDGKLVVKVTVEVKSAG [r14_310_TrROS_Hall]", 2.83]
]}
